tested on: Hs-578T; test: NCI tumour cell line growth inhibition, 48 h
The source made the active and inactive calls. No stated cut-off is given here; in the data, active = GI50 up to about 1.1 µM and inactive = higher.
Outcome codes: T (active), F (inactive)

COMPOUND	GROUP_LABEL
CC(C)CC[C@H](O)[C@@H](C)[C@H]1[C@@H](OC2OC(C)C(O)C(O)C2O)C[C@H]2[C@@H]3CC=C4C[C@@H](O)CC[C@]4(C)[C@H]3[C@@H](O)C[C@]12C (stereo partly drawn)	T
CN(C)CCCNc1ccc2nnn3c4ccc(OC(=O)c5ccc([N+](=O)[O-])cc5)cc4c(=O)c1c23	F
COc1ccc([C@@H]2ON(C)[C@H]3CN(C)C(=O)[C@@H]23)cc1	F

====

test system: OVCAR-5; test: NCI tumour cell line growth inhibition, 48 h
The source made the active and inactive calls. No stated cut-off is given here; in the data, active = GI50 up to about 1.1 µM and inactive = higher.

COMPOUND	EXPERIMENTAL_TARGET	GI50
O[C@@H]1C=C[C@]23CCN(Cc4cc5c(cc42)OCO5)[C@@H]3C1	OVCAR-5	> 100 µM (inactive)
COc1cc(/C=C(\NC(=O)c2ccccc2)c2nc3c(O)nc(S)nc3[nH]2)cc(OC)c1OC	OVCAR-5	> 100 µM (inactive)
CC1=NC2(CCCCC2)N(Cl)C(=O)C1SC#N (stereo unspecified)	OVCAR-5	22.8 µM (inactive)
S=C1NCN2CCN(CC2)CNC(=S)C(=S)NCN2CCN(CC2)CNC1=S	OVCAR-5	> 100 µM (inactive)
O=C1C[S+]([O-])C23c4cc5ccccc5n4CCC2CCCN13 (stereo unspecified)	OVCAR-5	> 100 µM (inactive)
CCCCCCCCc1cc2c(O)c(c1)Cc1cc(CCCCCCCC)cc(c1O)Cc1cc(CCCCCCCC)cc(c1O)Cc1cc(CCCCCCCC)cc(c1O)Cc1cc(CCCCCCCC)cc(c1O)Cc1cc(CCCCCCCC)cc(c1O)C2	OVCAR-5	> 100 µM (inactive)
CCCCCC(/C=C/[C@@H]1[C@H]2CC(=O)O[C@H]2C[C@H]1N1CCOCC1)OC1CCCO1 (stereo partly specified)	OVCAR-5	> 100 µM (inactive)
COc1ccccc1NCc1nnc(CCCCCCCCc2nnc(CNc3ccccc3OC)o2)o1	OVCAR-5	> 100 µM (inactive)
CC(C)CS(=O)(=O)/C(=C(\c1ccc(Br)cc1)S(=O)(=O)CC(C)C)c1ccc(Br)cc1	OVCAR-5	> 100 µM (inactive)
O=C1C2C(C(=O)N1Cc1ccccc1)N(Cc1ccccc1)C(=O)N2Cc1ccccc1 (stereo unspecified)	OVCAR-5	> 100 µM (inactive)
CCN(CC)CCNc1ccc2ncn3c4c(OC)ccc(O)c4c(=O)c1c23	OVCAR-5	42.4 µM (inactive)
O=C(CCN1CCCCC1)c1csc2ccccc12	OVCAR-5	> 100 µM (inactive)
COc1ccccc1OCC(=N/NC(=O)c1ccncc1)/N=C/c1ccncc1	OVCAR-5	> 100 µM (inactive)
C1CSC[C@H]2COC[C@@H](CSCCS1)S2	OVCAR-5	> 100 µM (inactive)
CCOC(=O)CN(Cn1cncn1)Cn1cncn1	OVCAR-5	> 100 µM (inactive)
Nc1nc(N)c2ncn(CC3CCC(CO)C3)c2n1 (stereo unspecified)	OVCAR-5	> 100 µM (inactive)
C[N+](C)(C)CC1CCCCCCCCCCC1=O (stereo unspecified)	OVCAR-5	> 100 µM (inactive)
O=C1C=CC2(C=C1)C[C@H](NC(=O)OCc1ccccc1)C(=O)O2	OVCAR-5	20.1 µM (inactive)
O=C(/C=C\c1ccc(Cl)cc1Cl)c1cccs1	OVCAR-5	20 µM (inactive)
O=C1N=C(Nc2ccccc2Cl)SC1C(=O)Nc1ccc([N+](=O)[O-])cc1[N+](=O)[O-] (stereo unspecified)	OVCAR-5	> 100 µM (inactive)
O=C1OC(CCCl)(c2ccccc2)CC1CN1CCOCC1 (stereo unspecified)	OVCAR-5	> 100 µM (inactive)
